Data origin: PubChem BioAssay (NCI)

Test system: OVCAR-3 ovarian
TEST_METHOD_NOTES: NCI-60 one-dose screen, 48 h (100 = growth as untreated, 0 = no growth, -100 = all killed)
TEST_CONTEXT: 10 µM unless noted
Procedure: Growth inhibition of the OVCAR-3 human tumor cell line is measured as a screen for anti-cancer activity. Cells are grown in 96 well plates and exposed to the test compound for 48 hours. Compounds are tested at a single concentration, which is 10^-5 M for most compounds. The reported endpoint is percent growth (GI% or GIPRCNT), where numbers from 0 - 100% represent growth inhibition, and numbers from -100% - 0 represent cell death. For example, a value of 40 represents 60% growth inhibition. […]
This is part of a sample that, as a whole, favours compounds with a hit. Of some 83,000 tested, about 20% had one in any assay.
growth strictly under 20% means yes; at 20% or over means no.

> print(dat)
                                   compound  category.label
1  CCCCCCNC(=O)Nc1ccc2cc3ccc(NC(=O)NCCCCCC)cc3nc2c1             yes
2  N/C(=N\C(N)=N\c1nc2ccccc2s1)c1ccnc(Br)c1             yes
3  COc1cc2oc(-c3cccc(C(=O)Nc4ccccc4)c3)cc(=O)c2c(O)c1OC              no
4  N#CC1=C(N)Oc2c(cnn2-c2ccc([N+](=O)[O-])cc2[N+](=O)[O-])C1c1ccccc1 (configuration not stated)              no
5  C=C1C(=O)O[C@H]2[C@H]1CC/C(CNC(=O)c1cccc3ccccc13)=C\CC[C@@]1(C)O[C@@H]21              no
6  CN1CCN(c2ccc(NC3=C(Cl)C(=O)c4ncccc4C3=O)cc2C(F)(F)F)CC1             yes
7     Oc1ccc(C(c2ccc(O)cc2)c2ccc(Br)cn2)cc1             yes
8  O=C(O)c1ccc(NCc2cn(-c3ccc(C(F)(F)F)cc3)nc2-c2ccc(C(=O)O)cc2)cc1              no

growth strictly < 20% for this compound? O=c1ccc(-c2nc(N3CCOCC3)c3ccccc3n2)c[nH]1 no

growth strictly < 20% for this compound? N#CC1=C(/N=C/c2ccccc2)Oc2c(ccc3ccccc23)C1c1ccc([N+](=O)[O-])cc1 (configuration not stated) no

growth strictly < 20% for this compound? COc1cc2c3c(c4c5ccccc5[nH]c4c2c(OC)c1OC)C(=O)N(CCN1CCOCC1)C3=O no

###

Kindly state growth for each of the entries shown.
Test system: LOX IMVI melanoma
TEST_METHOD_NOTES: NCI-60 one-dose screen, 48 h (100 = growth as untreated, 0 = no growth, -100 = all killed)
TEST_CONTEXT: 10 µM unless noted
Compounds without any hit were thinned out: in the full panel of roughly 83,000, 20% have a hit.
Give bare numbers, in %.

For each of the compounds below, note its growth.
1. CCNc1nc2cc(Nc3ccnc4cc(Cl)ccc34)ccc2o1
2. COc1ccc(Cc2cnc(NC(=O)c3ccc4c(c3)OCCO4)s2)cc1
3. COc1cccc(/C=N/NC(=O)c2cnn3c2NC(c2ccccc2)C3)c1Oc1ccccc1 (configuration not stated)
4. N#Cc1c(NC(=O)NCc2ccccc2)sc2c1CCCC2
5. O=S(=O)(NCCNc1nccc(-c2c(-c3cccc(O)c3)nc3occn23)n1)c1ccc(C(F)(F)F)cc1

1: 58.5; 2: 29.3; 3: 84.5; 4: 24; 5: 75.1

For each of the compounds below, note its growth.
1. CCOC(=O)CC1CSC(N/N=C/c2ccc(-n3cccn3)cc2)=N1 (configuration not stated)
2. CCCCCCNC(=O)Oc1ccc(/C(=C(\C)c2ccccc2)c2ccc(OCCCN(C)C)cc2)cc1

1. 97.4
2. 80.2
